conditions: 353.15 K; 5100 kPa; Liquid; Pendant drop shape
ATTRIBUTE_MEASURED: interfacial tension (mN/m)
Write the number in mN/m without appending the unit.

The measured interfacial tension associated with CCCCCCCCCC [decane] + O=C=O reads 11.28

The measured interfacial tension associated with CCCCCCCCCCCCC [tridecane] + O=C=O reads 12.85

The measured interfacial tension associated with CCCCCCCCCCCC [dodecane] + O=C=O reads 11.99

Further cases:
The measured interfacial tension associated with CCCCCCCCCCC [undecane] + O=C=O reads 11.69

* * *

conditions: 353.15 K; 1100 kPa; Liquid; Pendant drop shape
Listed here: items and their measured interfacial tension.
Write the number in mN/m without appending the unit.

Observe how each entry below is paired with its result.
The measured interfacial tension associated with CCCCCCCCCCCCCCCCCCC [nonadecane] + O=C=O reads 19.52

The measured interfacial tension associated with CCCCCCCCCCCCCCCCCC [octadecane] + O=C=O reads 19.16

The measured interfacial tension associated with CCCCCCCCCCCC [dodecane] + O=C=O reads 16.94

The measured interfacial tension associated with CCCCCCCCCCCCCCCCC [heptadecane] + O=C=O reads 18.47

Further cases:
The measured interfacial tension associated with CCCCCCCCCCC [undecane] + O=C=O reads 17.09

* * *

details: 353.15 K; 6100 kPa; Liquid; Pendant drop shape
Numbers after ± are expanded uncertainties.
ATTRIBUTE_MEASURED: interfacial tension

The measured interfacial tension associated with CCCCCCCCCCCCC [tridecane] + O=C=O reads 12.02 ± 1 mN/m

The measured interfacial tension associated with CCCCCCCCCC [decane] + O=C=O reads 9.86 ± 1 mN/m

The measured interfacial tension associated with CCCCCCCCCCCCCCC [pentadecane] + O=C=O reads 12.36 ± 1 mN/m

The measured interfacial tension associated with CCCCCCCCCCC [undecane] + O=C=O reads 10.45 ± 1 mN/m

Consider the additional compound presented here.
The measured interfacial tension associated with CCCCCCCCCCCC [dodecane] + O=C=O reads 10.69 ± 1 mN/m

* * *

settings: 353.15 K; 10100 kPa; Liquid; Pendant drop shape
ATTRIBUTE_MEASURED: interfacial tension (mN/m)
Write the number in mN/m without appending the unit.

Observe how each entry below is paired with its result.
The measured interfacial tension associated with CCCCCCCCCCC [undecane] + O=C=O reads 5.59

The measured interfacial tension associated with CCCCCCCCCCCCCCCCCC [octadecane] + O=C=O reads 8.87

The measured interfacial tension associated with CCCCCCCCCCCC [dodecane] + O=C=O reads 5.88

The measured interfacial tension associated with CCCCCCCCCCCCC [tridecane] + O=C=O reads 7.07

Consider the additional compound presented here.
The measured interfacial tension associated with CCCCCCCCCC [decane] + O=C=O reads 4.65

* * *

Listed here: items and their measured interfacial tension.
conditions: 353.15 K; 4100 kPa; Liquid; Pendant drop shape
Write the number in mN/m without appending the unit.

The measured interfacial tension associated with CCCCCCCCCCCC [dodecane] + O=C=O reads 13.4

Further cases:
The measured interfacial tension associated with CCCCCCCCCCC [undecane] + O=C=O reads 13.17

The measured interfacial tension associated with CCCCCCCCCCCCCCCCC [heptadecane] + O=C=O reads 14.62

The measured interfacial tension associated with CCCCCCCCCCCCC [tridecane] + O=C=O reads 14.09

The measured interfacial tension associated with CCCCCCCCCC [decane] + O=C=O reads 12.52

* * *

Listed here: items and their measured interfacial tension.
conditions: 353.15 K; 8100 kPa; Liquid; Pendant drop shape
Numbers after ± are expanded uncertainties.

Observe how each entry below is paired with its result.
The measured interfacial tension associated with CCCCCCCCCC [decane] + O=C=O reads 7.85 ± 1 mN/m

The measured interfacial tension associated with CCCCCCCCCCC [undecane] + O=C=O reads 7.45 ± 1 mN/m

The measured interfacial tension associated with CCCCCCCCCCCCC [tridecane] + O=C=O reads 9.58 ± 1 mN/m

Further cases:
The measured interfacial tension associated with CCCCCCCCCCCCCCCCCC [octadecane] + O=C=O reads 10.68 ± 1 mN/m

The measured interfacial tension associated with CCCCCCCCCCCC [dodecane] + O=C=O reads 8.32 ± 1 mN/m

* * *

settings: 353.15 K; 12100 kPa; Liquid; Pendant drop shape
ATTRIBUTE_MEASURED: interfacial tension (mN/m)
Write the number in mN/m without appending the unit.

The measured interfacial tension associated with CCCCCCCCCCCCCCC [pentadecane] + O=C=O reads 5.82

The measured interfacial tension associated with CCCCCCCCCCCCCCCCCC [octadecane] + O=C=O reads 6.63

The measured interfacial tension associated with CCCCCCCCCCC [undecane] + O=C=O reads 3.39

Consider the additional compound presented here.
The measured interfacial tension associated with CCCCCCCCCCCCC [tridecane] + O=C=O reads 4.84

* * *

conditions: 353.15 K; 11100 kPa; Liquid; Pendant drop shape
Listed here: items and their measured interfacial tension.
Write the number in mN/m without appending the unit.

Observe how each entry below is paired with its result.
The measured interfacial tension associated with CCCCCCCCCCCCCCC [pentadecane] + O=C=O reads 6.78

The measured interfacial tension associated with CCCCCCCCCCCCC [tridecane] + O=C=O reads 6.1

The measured interfacial tension associated with CCCCCCCCCCCCCCCCCC [octadecane] + O=C=O reads 7.66

The measured interfacial tension associated with CCCCCCCCCCC [undecane] + O=C=O reads 4.37

The measured interfacial tension associated with CCCCCCCCCCCCCCCCCCC [nonadecane] + O=C=O reads 7.87

Further cases:
The measured interfacial tension associated with CCCCCCCCCCCC [dodecane] + O=C=O reads 4.8

* * *

settings: 353.15 K; 9100 kPa; Liquid; Pendant drop shape
ATTRIBUTE_MEASURED: interfacial tension (mN/m)
Write the number in mN/m without appending the unit.

The measured interfacial tension associated with CCCCCCCCCCCCC [tridecane] + O=C=O reads 8.18

The measured interfacial tension associated with CCCCCCCCCC [decane] + O=C=O reads 5.91

The measured interfacial tension associated with CCCCCCCCCCC [undecane] + O=C=O reads 6.45

Further cases:
The measured interfacial tension associated with CCCCCCCCCCCC [dodecane] + O=C=O reads 6.96

* * *

settings: 323.15 K; 7100 kPa; Liquid; Pendant drop shape
Listed here: items and their measured interfacial tension.
Write the number in mN/m without appending the unit.

The measured interfacial tension associated with CCCCCCCCCCCC [dodecane] + O=C=O reads 7.68

The measured interfacial tension associated with CCCCCCCCCCCCCCC [pentadecane] + O=C=O reads 10.16

The measured interfacial tension associated with CCCCCCCCCCCCCCCCCCC [nonadecane] + O=C=O reads 11.35

The measured interfacial tension associated with CCCCCCCCCCCCC [tridecane] + O=C=O reads 9.42

The measured interfacial tension associated with CCCCCCCCCC [decane] + O=C=O reads 6.85

Consider the additional compound presented here.
The measured interfacial tension associated with CCCCCCCCCCC [undecane] + O=C=O reads 7.2

* * *

settings: 353.15 K; 2100 kPa; Liquid; Pendant drop shape
Listed here: items and their measured interfacial tension.
Write the number in mN/m without appending the unit.

The measured interfacial tension associated with CCCCCCCCCCCCCCCCC [heptadecane] + O=C=O reads 17.15

Further cases:
The measured interfacial tension associated with CCCCCCCCCCCC [dodecane] + O=C=O reads 16.02

The measured interfacial tension associated with CCCCCCCCCCCCCCCC [hexadecane] + O=C=O reads 17.48

The measured interfacial tension associated with CCCCCCCCCCC [undecane] + O=C=O reads 15.83

* * *

Listed here: items and their measured interfacial tension.
details: 323.15 K; 2100 kPa; Liquid; Pendant drop shape
Write the number in mN/m without appending the unit.

Observe how each entry below is paired with its result.
The measured interfacial tension associated with CCCCCCCCCCC [undecane] + O=C=O reads 17.25

The measured interfacial tension associated with CCCCCCCCCCCCC [tridecane] + O=C=O reads 18.27

The measured interfacial tension associated with CCCCCCCCCCCC [dodecane] + O=C=O reads 17.29

Consider the additional molecule presented here.
The measured interfacial tension associated with CCCCCCCCCC [decane] + O=C=O reads 16.35

* * *

Listed here: items and their measured interfacial tension.
settings: 323.15 K; 5100 kPa; Liquid; Pendant drop shape
Write the number in mN/m without appending the unit.

Observe how each entry below is paired with its result.
The measured interfacial tension associated with CCCCCCCCCCC [undecane] + O=C=O reads 10.98

The measured interfacial tension associated with CCCCCCCCCCCCCCCCCC [octadecane] + O=C=O reads 11.94

The measured interfacial tension associated with CCCCCCCCCCCCC [tridecane] + O=C=O reads 12.93

Further cases:
The measured interfacial tension associated with CCCCCCCCCCCCCCCCC [heptadecane] + O=C=O reads 13.95

Origin of measurements: the NIST ThermoML archive (doi:10.1021/acs.jced.7b00159)
